Would you mind telling me the reported Kd of each entry?
Target: T1, murine CTLA4-Fc (R&D Systems) (mouse, UniProt P09793 36-162, limits assumed)
T1 construct: Bought fusion protein; also called mouse CTLA4; not shown: It was captured by an anti-human IgG-Fc antibody
Experiment: SPR, Biacore T100, 25 C; CTLA4-Fc captured on anti-human IgG-Fc, mutein as analyte; 1:1 Langmuir fit
Experimental: Real time affinity analysis was performed at 25° C. using a Biacore T100 system (GE Healthcare). Anti-human IgG-Fc antibody (Jackson ImmounoResearch Laboratories) was immobilized on a CM5 sensor chip using standard amine coupling chemistry, resulting in a ligand density of 8000 resonance units (RU). […] Subsequently, the Lcn2 muteins (SEQ ID: No 12 to SEQ ID NO: 17) were applied in an appropriate dilution series in HBS-EP at a flow rate of 30 μl/min. […]
Answers are plain numbers, in pM.

Input: Given the entry hNGALM7 (designed binder) QDSTSDLIPAPPLSKVPLQQNFQDNQFHGKWYVVGLAGNRILRLDQHPMPMYATIYELKGDKSYNVTSVISSHKKCLYPIATFVPGSQPGEFTLGNIRSYGDKTSYLVRVVSTDYNQYAVVFFKHADTNYESFSITIYGRTKELASELKENFIRFSKSLGLPENHIVFPVPIDQCIDGSAWSHPQFEK , report its measured Kd.
Output: 413

Input: Likewise for hNGALM4 (designed binder) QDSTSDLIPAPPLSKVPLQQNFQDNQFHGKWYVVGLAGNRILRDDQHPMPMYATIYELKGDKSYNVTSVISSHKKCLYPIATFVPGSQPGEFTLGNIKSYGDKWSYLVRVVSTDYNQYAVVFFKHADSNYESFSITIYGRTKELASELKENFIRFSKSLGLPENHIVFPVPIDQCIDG ?
Output: 584

# context switch: different binder, same Kd
Input: Record request: Kd value, item hNGALM5 (designed binder) QDSTSDLIPAPPLSKVPLQQNFQDNQFHGKWYVVGLAGNRILRSDQHPMRMYATIYELKGDKSYNVTSVISSHKKCLYTIATFVPGSQPGEFTLGNIKSYGDKWSYLVRVVSTDYNQYAVVFFKHADTNYESFSITIYGRTKELASELKENFIRFSKSLGLPENHIVFPVPIDQCIDGSAWSHPQFEK
Output: 320
